Reference source: PubChem BioAssay (Tox21)

TESTED ON: Estrogen receptor (Homo sapiens) (UniProt P03372)
Sequence (P03372 whole entry, looked up): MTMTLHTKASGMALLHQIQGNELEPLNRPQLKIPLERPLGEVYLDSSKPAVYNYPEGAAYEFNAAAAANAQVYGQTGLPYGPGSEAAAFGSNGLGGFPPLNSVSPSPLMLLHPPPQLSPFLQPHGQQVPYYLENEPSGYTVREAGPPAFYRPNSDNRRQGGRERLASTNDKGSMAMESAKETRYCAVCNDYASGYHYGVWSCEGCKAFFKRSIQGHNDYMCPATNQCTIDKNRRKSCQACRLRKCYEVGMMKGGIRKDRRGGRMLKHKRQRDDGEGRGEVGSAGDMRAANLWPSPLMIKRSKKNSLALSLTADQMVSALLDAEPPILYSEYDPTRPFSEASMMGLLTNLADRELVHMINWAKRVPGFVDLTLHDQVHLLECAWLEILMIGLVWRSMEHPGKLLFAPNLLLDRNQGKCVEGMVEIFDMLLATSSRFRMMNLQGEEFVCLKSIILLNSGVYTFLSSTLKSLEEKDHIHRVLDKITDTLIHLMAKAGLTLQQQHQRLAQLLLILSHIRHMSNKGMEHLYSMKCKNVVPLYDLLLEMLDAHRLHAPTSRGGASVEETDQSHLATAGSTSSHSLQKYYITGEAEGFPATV
RUN DESCRIPTION: qHTS assay to identify small molecule antagonists of the estrogen receptor alpha (ER-alpha) signaling pathway using the BG1 cell line in the presence of 0.1 nM 17-beta-estradiol (AID 1259244); also: nearly all actives have a fitted effect of over 50% in size
MEASUREMENT SETUP: VM7Luc4E2 (BG1) ERE-luciferase, antagonist mode, 0.1 nM E2, 22 h; series mostly up to 92.4 µM
Inconclusive results are not listed. Calls of active or inactive are those of the source. Calls follow the shape of the dose curve; as a rule, active = well fitted inhibition curve with a large enough effect in the repeat runs; inconclusive = weak or mixed curves; inactive = no such curve, though single readings can be large or run the other way.
Choose one outcome from this list and give only that: active, inactive

COMPOUND | CLASS
Cc1cc2c(OCC(CNC(C)(C)C)OC(=O)c3ccccc3)cccc2[nH]1 (configuration not stated) | inactive
CCOC(=O)[C@H](CCc1ccccc1)N[C@@H](C)C(=O)N(CC(=O)O)C1Cc2ccccc2C1 | inactive
COc1ccccc1Oc1c(NS(=O)(=O)c2ccc(C(C)(C)C)cc2)nc(-c2ncccn2)nc1OCCO | inactive
CC=C(Cl)Cl | inactive
CC1(C)[C@H](C(=O)O)N2C(=O)C[C@H]2S1(=O)=O | inactive

Data request: Status in this test for O=C(O)C[C@H](NC(=O)OCc1ccccc1)C(=O)O ?
Data returned: inactive

Data request: And the next one, C=Cc1ccc(S(=O)(=O)O)cc1 ?
Data returned: inactive

Data request: Another: CNC(=O)c1cnn(-c2nc(N)c3ncn([C@@H]4O[C@H](CO)[C@@H](O)[C@H]4O)c3n2)c1
Data returned: inactive

----------
RUN DESCRIPTION: qHTS assay to identify small molecule antagonists of the androgen receptor (AR) signaling pathway using the MDA cell line in the presence of 0.5 nM R1881 - cell viability counter screen (AID 1259242); also: nearly all actives have a fitted effect of over 45% in size
MEASUREMENT SETUP: MDA-kb2 viability, CellTiter-Fluor protease fluorescence, 16 h; series mostly up to 92.4 µM
Results filed as inconclusive are left out. Calls of active or inactive are those of the source. The call rests on the fitted dose curve; in most records, active means well fitted cell-killing curve with a large enough effect in the repeat runs; inconclusive means weak or mixed curves, or effect the other way; inactive means flat fitted curve, though single readings scatter.
# valid calls are active, inactive; nothing else

MOLECULE | CLASS
Cc1ccc(Cl)c(Nc2ccccc2C(=O)O)c1Cl | inactive
c1cc(N(CC2CO2)CC2CO2)ccc1Cc1ccc(N(CC2CO2)CC2CO2)cc1 (stereo not given) | inactive
OC[C@H]1O[C@@H](n2cnc3c(=S)nc[nH]c32)[C@H](O)[C@@H]1O | inactive
CC(=O)Oc1ccc([N+](=O)[O-])cc1CCl | active
C[C@]12CC[C@@H]3c4ccc(O)cc4CC[C@H]3[C@@H]1CC[C@@H]2OC(=O)CCC1CCCC1 | inactive

Data request: Hey, what did the test say about Nc1cccc2c1CN(C1CCC(=O)NC1=O)C2=O (stereo not given) ?
Data returned: inactive

Data request: // same read-out, input: CC[C@]1(O)C[C@H]2CN(CCc3c([nH]c4ccccc34)[C@@](C(=O)OC)(c3cc4c(cc3OC)N(C=O)[C@H]3[C@@](O)(C(=O)OC)[C@H](OC(C)=O)[C@]5(CC)C=CCN6CC[C@]43[C@@H]65)C2)C1
Data returned: inactive

Data request: And what about the molecule CC(=O)OCC(=O)NCCCOc1cccc(CN2CCCCC2)c1 ?
Data returned: inactive

Data request: Now the same for CCCCN(CCCC)C(C(N)=O)c1ccc(OC)cc1 (stereo not given)
Data returned: inactive

Data request: Param item: CCC(OCCCOC)OC(C)=O (stereo not given)
Data returned: inactive

----------
RUN DESCRIPTION: qHTS RealTime-Glo MT Cell Viability Assay in HepG2 cells - 16 hour (AID 1224885); also: nearly all actives have a fitted effect of over 50% in size
MEASUREMENT SETUP: RealTime-Glo luminescence; series mostly up to 76.8 µM
Results filed as inconclusive are left out. Calls of active or inactive are those of the source. Calls follow the shape of the dose curve; as a rule, active = well fitted cell-killing curve with a large enough effect in the repeat runs; inconclusive = weak or mixed curves; inactive = flat fitted curve, though single readings scatter.
Your response should consist of one outcome taken from yes (1) = active, no (0) = inactive

Known results for molecules:
MOLECULE | CLASS
CC1(C)[C@@H](OC(=O)CCC(=O)O)CC[C@]2(C)[C@H]3C(=O)C=C4[C@@H]5C[C@@](C)(C(=O)O)CC[C@]5(C)CC[C@@]4(C)[C@]3(C)CC[C@@H]12 | no (0)
CC1(C)S[C@@H]2[C@H](NC(=O)C(c3ccccc3)S(=O)(=O)O)C(=O)N2[C@H]1C(=O)O (some centres undefined) | no (0)

Data request: What outcome does the record of this test show for C[C@@H](O[C@H]1OCCN(Cc2n[nH]c(=O)[nH]2)[C@H]1c1ccc(F)cc1)c1cc(C(F)(F)F)cc(C(F)(F)F)c1 ?
Data returned: yes (1)

Data request: Another molecule to look at: CCn1cc(C(=O)O)c(=O)c2cc(F)c(N3CCNCC3)cc21
Data returned: no (0)

Data request: Same thing, different molecule: Cc1cscn1
Data returned: no (0)

Data request: Note, next up: Cc1cccc(N(C)C(=S)Oc2ccc3c(c2)CCC3)c1
Data returned: no (0)

----------
RUN DESCRIPTION: qHTS assay to identify small molecule agonists of the hypoxia (HIF-1) signaling pathway - cell viability counter screen (AID 1224844); also: nearly all actives have a fitted effect of over 50% in size
MEASUREMENT SETUP: HRE-bla ME-180 viability, CellTiter-Glo luminescence, 17 h; series mostly up to 76.8 µM
Results filed as inconclusive are left out. Activity calls are given as the source filed them. Calls follow the shape of the full dose curve.
Hello, when you answer, please use one of the following outcomes: t for active, f for inactive

Reference set (5 entries):
COMPOUND | CLASS
COC(=O)CS | f
Cc1ccco1 | f
Cc1ccccc1N=C(N)Nc1ccccc1C | f
CCOC(=O)C1=C(C)NC(C)=C(C(=O)OC)C1c1cccc(Cl)c1Cl (stereo unspecified) | f
CCOc1ccc(Cc2nccc3cc(OCC)c(OCC)cc23)cc1OCC | f

Data request: # lookup: test call for Cc1cc(C)c(N)cc1C
Data returned: f

Data request: // repeat for Cc1ccccc1S and report
Data returned: f

Data request: // query: CN1CCCC(n2nc(Cc3ccc(Cl)cc3)c3ccccc3c2=O)CC1 (stereo unspecified)
Data returned: t

Data request: Now the compound Oc1ccc(Cl)c2cccnc12
Data returned: f

Data request: Now consider OC(CCN1CCCC1)(c1ccccc1)C1CCCCC1 (stereo unspecified) and answer again.
Data returned: f

Data request: Another compound: OC[C@H]1O[C@@H](n2cnc3c(=S)nc[nH]c32)[C@H](O)[C@@H]1O
Data returned: f

Data request: Next compound up: O=C(/C=C/c1ccc(O)c(O)c1)O[C@@H]1C[C@@](OC(=O)/C=C/c2ccc(O)c(O)c2)(C(=O)O)C[C@@H](O)[C@@H]1O
Data returned: f

Data request: Also check CCCCC(CC)COP(=O)(O)O (stereo unspecified)
Data returned: t

Data request: Would you mind doing O=C1CCCCCCCCCCOCCCCO1 as well?
Data returned: f

Data request: O=[N+]([O-])c1ccc(O/N=C/c2cc(Br)c(O)c(Br)c2)c([N+](=O)[O-])c1 ?
Data returned: f

Data request: And N#CCCN(CCO)CCO ?
Data returned: f

Data request: How about CC(C)=CCC/C(C)=C/CC/C(C)=C/CCC(=O)OC/C=C(\C)CCC=C(C)C ?
Data returned: f

Data request: // repeat for CCC=CC#N and report
Data returned: f

Data request: What about CC(C)Nc1cccnc1N1CCN(C(=O)c2cc3cc(NS(C)(=O)=O)ccc3[nH]2)CC1 ?
Data returned: f

Data request: // next record CC(=O)NC1(c2cccc(F)c2)CCN(CC[C@@]2(c3ccc(Cl)c(Cl)c3)CN(c3ccccc3)C(=O)CO2)CC1
Data returned: t

Data request: Try this compound too: CCCCCCCCCCC(=O)O
Data returned: f

Data request: Now the same for NCCNCCO
Data returned: f

Data request: Repeat with CN(C)CCN1C(=O)c2ccccc2N(C)c2ccccc21
Data returned: f

Data request: Also, Nc1cccc2c1CN(C1CCC(=O)NC1=O)C2=O (stereo unspecified) please.
Data returned: f

Data request: Item: CCCCC(CC)CN (stereo unspecified)
Data returned: f

Data request: Next compound: COC(=O)C1=C(C)NC(C)=C(C(=O)O[C@@H]2CCCN(Cc3ccccc3)C2)[C@@H]1c1cccc([N+](=O)[O-])c1
Data returned: f

----------
RUN DESCRIPTION: qHTS assay for small molecules that induce genotoxicity in human embryonic kidney cells expressing luciferase-tagged ATAD5 - cell viability (AID 651634); also: nearly all actives have a fitted effect of over 25% in size
MEASUREMENT SETUP: HEK293T ATAD5-luc cells viability, CellTiter-Fluor, 15.5 h; series mostly up to 83.3 µM
Text: National Center for Advancing Translational Sciences [NCATS] NIH Chemical Genomics Center [NCGC] U.S. Environmental Protection Agency [EPA] National Institutes of Environmental Health Sciences [NIEHS] National Toxicology Program [NTP] U.S. Food and Drug Administration [FDA] Enhanced Level of Genome Instability Gene 1 (ELG1; human ATAD5) protein levels increase in response to various types of DNA damage. […]
Results filed as inconclusive are left out. Calls of active or inactive are those of the source. The call rests on the fitted dose curve.
Pick one and only one: class 1 (active), class 0 (inactive)

COMPOUND | CLASS
CCn1cc(C(=O)O)c(=O)c2cc(F)c(N3CCNCC3)cc21 | class 0
CCC(C)COC(C)=O (stereo not drawn) | class 0
Cc1cc(C)c(N)cc1C | class 0
CCOC(C)=O | class 0
COC(=O)CS | class 0
CC[C@]1(O)C[C@H]2CN(CCc3c([nH]c4ccccc34)[C@@](C(=O)OC)(c3cc4c(cc3OC)N(C=O)[C@H]3[C@@](O)(C(=O)OC)[C@H](OC(C)=O)[C@]5(CC)C=CCN6CC[C@]43[C@@H]65)C2)C1 | class 1

Data request: Could you kindly confirm the outcome this assay logged for O=C1c2ccccc2C(=O)C1c1ccc(Br)cc1 ?
Data returned: class 0

Data request: Try the compound CC(C)=CCC/C(C)=C/CC/C(C)=C/CCC(=O)OC/C=C(\C)CCC=C(C)C
Data returned: class 0

Data request: O=C(Cn1ccnc1[N+](=O)[O-])NCCO ?
Data returned: class 0
